- Tested on: influenza A virus hemagglutinin (on whole virus particles) (Influenza A virus (strain not in the material))
- experiment description: BLI
- run conditions: BLI: 10 mM Tris-HCl pH 7.5, 140 mM NaCl, 10 mM KCl ([…], temperature not stated
pKd: −log10 of the molar value.

{"sequence chain": "TTGGGGTTATTTTGGGAGGGCGGGGGTT [RHA0385 (biotinylated)]", "pKd": 8.96}
